growth inhibition values, listed per item
- runDescription: NCI Yeast Anticancer Drug Screen. Data for the rad50 strain (AID 155);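 note: 0% = growth of vehicle-only cultures of the same strain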
- assayConditions: S. cerevisiae rad50 strain growth inhibition; at 50.0 µM; active compounds read high
This is part of a sample that, as a whole, favours compounds with a hit. Of some 79,000 tested, about 15% had one in any assay.

molecule: O=C1CC(c2ccccc2)C(c2ccccc2)C1C(=O)OCCc1ccccc1 (stereo not given)
units: %
growth inhibition: 36
//
molecule: COC(C)CCOC(=O)c1ccccc1 (stereo not given)
units: %
growth inhibition: -33
//
molecule: CCCOc1ccc(C(N)=S)c2ccccc12
units: %
growth inhibition: -0.25
//
molecule: COc1ccc(C2=C(Cl)c3cc(OC)c(OC)cc3C2Cl)cc1OC (stereo not given)
units: %
growth inhibition: 41.5
//
molecule: CC(=O)OC1CC2(C)OC(Cc3ccccc32)O1 (stereo not given)
units: %
growth inhibition: -37.2
